# System: SF-539 CNS
# PROTOCOL: NCI tumour cell line growth inhibition, 48 h
MEASURED ENDPOINT: log10 TGI (log10 of the value in µM)
In plain terms, each number is the log10 of measured TGI in µM.

{"STRUCTURE SMILES": "COc1ccc(-c2ccc(-c3ccc(C(=N)N)s3)s2)cc1", "MEASURED ENDPOINT": "log10 TGI", "RESULT": -0.46}
{"STRUCTURE SMILES": "CNC(=S)N=Nc1c(O)n(CN2CCOCC2)c2ccc([N+](=O)[O-])cc12", "MEASURED ENDPOINT": "log10 TGI", "RESULT": 1.52}
{"STRUCTURE SMILES": "COC(=O)c1ccccc1Nc1nc(-c2cccs2)nc2cc(OC)c(OC)cc12", "MEASURED ENDPOINT": "log10 TGI", "RESULT": 1.93}
{"STRUCTURE SMILES": "O=[N+]([O-])/C(C(Cl)=C(Cl)Cl)=C(/Nc1ccccc1)SCc1ccccc1", "MEASURED ENDPOINT": "log10 TGI", "RESULT": 1.59}

Please look at the following compound next.
The recorded log10 TGI for O=C1c2cccc3cccc(c23)C(=O)N1CCCNCCCNCCCCNCCCNCCCN1C(=O)c2cccc3cccc(c23)C1=O is 1.37

###

// reported GI50 for each item listed
# System: MALME-3M melanoma
# PROTOCOL: NCI tumour cell line growth inhibition, 48 h

Use these answered entries as a reference point.
{"STRUCTURE SMILES": "C1=C\\COCc2cc(ccc2OCCN2CCCC2)Nc2nccc(n2)-c2cccc(c2)COC/1", "MEASURED ENDPOINT": "GI50", "RESULT": "2.13 µM"}
{"STRUCTURE SMILES": "CCN(Cc1ccccc1C)c1ccc(CO)c(Cl)c1", "MEASURED ENDPOINT": "GI50", "RESULT": "15.6 µM"}
{"STRUCTURE SMILES": "CCCOc1ccc2sc(NC(=O)OC)nc2c1", "MEASURED ENDPOINT": "GI50", "RESULT": "3.81 µM"}
{"STRUCTURE SMILES": "Cn1cc(C2=C(c3cccc(Br)c3)C(=O)NC2=O)c2ccccc21", "MEASURED ENDPOINT": "GI50", "RESULT": "> 19.2 µM"}
{"STRUCTURE SMILES": "Cc1[nH]c(/C=C2\\C(=O)Nc3ccccc32)c(C)c1CCC(=O)O", "MEASURED ENDPOINT": "GI50", "RESULT": "10.7 µM"}
{"STRUCTURE SMILES": "O=C1NC(=O)C(c2cccc([N+](=O)[O-])c2)=C1Nc1cc(Cl)c(O)c(Cl)c1", "MEASURED ENDPOINT": "GI50", "RESULT": "> 25 µM"}

According to the records, this molecule CSc1ccc2c(c1)C(=O)c1c-2n(CCCBr)c(=O)c2cc([N+](=O)[O-])ccc12 displays GI50 of 11.6 µM

// sample CC(=O)[O][Ga]([Br])[O]C(C)=O , its GI50 was > 100 µM

What the record says about COc1c[c]([Hg][O]C(C)=O)c(OC)c(NC(=O)CC(C)=O)[c]1[Hg][O]C(C)=O : GI50 is 1.53 µM

Documented GI50 of NC(=O)c1cc(S(=O)(=O)Nc2nnc(-c3ccccc3)c(-c3ccccc3)n2)c(SCc2ccccc2)cc1Cl : > 100 µM

So for COc1ccc(-n2c(C)cc(-c3ccccc3)c2C)cc1 , the logged GI50 turned out to be 1.78 µM

Hello, the source for this data is PubChem BioAssay (NCI), in case you need it.
